tested on: Plasmodium berghei; experiment: Screen against P. berghei liver stage (PbLuc), transformed with Luciferase, at 10uM; type: functional, HepG2; settings: tested at 10 uM
The whole screen tested about 69,000 compounds, of which about 8,600 (12%) showed an effect of 50% or more. The entries come from a sample that favours strong results as a whole.
We'd kindly ask you to apply these INHIBITION classes: bucket 1 (below 10%), bucket 2 (10% to below 30%), bucket 3 (30% or more)

1) CCOCCCNC(=O)c1nnn(Cc2ccccc2)c1OC ... bucket 2
2) COCc1ccc(C(=O)N2CCC(c3cc4ncc(C)nc4[nH]3)C2)cc1 (configuration not stated) ... bucket 2
3) CN(C)c1cccc(C(=O)N2CCC(c3n[nH]c(C4CC4)n3)CC2)c1 ... bucket 2
4) O=c1[nH]c2cn(-c3ccccc3)c(=O)n2[nH]1 ... bucket 2
5) CN(C)c1ccc(C(=O)N2CCC(c3cc4cnccc4[nH]3)CC2)cc1 ... bucket 3

Classify this compound: CCOC(=O)CNC(=O)c1cc2n(n1)CCCO2
bucket 1

Entry to check: CC(C(=O)NCCOc1ccccc1)n1cncn1 (configuration not stated)
bucket 1

Entry to check: CN(C)c1ccc(C(=O)N2CCC(c3cc4ncccc4[nH]3)CC2)cc1
bucket 3

Entry to check: Cc1noc(C)c1C(=O)N1CCC(c2cc3cnccc3[nH]2)CC1
bucket 2

Entry to check: CCNC(=O)c1cc2n(n1)CCCO2
bucket 1

Entry to check: CCOC(=O)c1cc2n(n1)CCCO2
bucket 3

Entry to check: CN1CCN(C(=O)[C@H]2CC[C@@H]3[C@@H](CCN3Cc3ccsc3)O2)CC1
bucket 3
